- Target of assay: wild-type EGFR expressed on cells (human), P00533
- Assay: flow cytometry, A431 cells
- Test parameters: remark: other sources report otherwise

- Binder: "32G8 (antibody, V domains shown) VH: EVNLVESGGGLVKPGGSLRLSCEASGFTFSYAWMSWVRQAPGKGLEWVGRIKSITDGGVIDYAAPVRNRCTISRDDSRNTLYLEMHSLKTEDTAVYYCTTIPGNDDFDMWGQGRMVTVSS VL: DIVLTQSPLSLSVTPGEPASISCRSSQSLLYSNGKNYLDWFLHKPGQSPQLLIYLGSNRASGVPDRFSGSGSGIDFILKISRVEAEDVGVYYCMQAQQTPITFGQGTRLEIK"
  MFI: 271

Provenance of the data: patent US20190144550A1
